B1: LINE1-full (parent)
chain: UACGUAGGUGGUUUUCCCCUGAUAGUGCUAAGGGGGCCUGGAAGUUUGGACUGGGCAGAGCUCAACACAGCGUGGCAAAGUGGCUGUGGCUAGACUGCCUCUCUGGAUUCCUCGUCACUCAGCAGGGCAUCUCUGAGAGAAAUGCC

variants of: B1; assay: self-cleavage, relative activity (ratio to wild type); higher = more cleavage; in vitro, sequencing; the parent is a self-cleaving ribozyme

{"columns": ["mutation_label", "self-cleavage"],
 "data": [
  ["U20A A136G", 0.93],
  ["A2G A43U", 1.34],
  ["G58U A140G", 0.05],
  ["C99U U112A", 1.12],
  ["A64U A107G", 0.45],
  ["U15G U115C", 0.84],
  ["U108C C111A", 1.76],
  ["U87C C99U", 0.13],
  ["A50G A69U", 0.1],
  ["C68U U81A", 0.18],
  ["A57G U102G", 0.19],
  ["U73C U104C", 0.94],
  ["A77G U143C", 2.2],
  ["U96A G137A", 0.12],
  ["U108G A121U", 1.86],
  ["U39C U52A", 1.4],
  ["C37G A121G", 1.23],
  ["U5C U52C", 1.23],
  ["G36C U85C", 0.16],
  ["G106A U134C", 1.08],
  ["U5A U96C", 0.45],
  ["U15C U143G", 2.03],
  ["U20A A140G", 1.16],
  ["A6G G11A", 2.36],
  ["U73G A92G", 0.36],
  ["A42U A142G", 0.88],
  ["C68U A124U", 0.28],
  ["A65U A129U", 0.18],
  ["U26A U100G", 1.31],
  ["U73A A124C", 2.02],
  ["C101A A142G", 1.53],
  ["G27A A136G", 0.93],
  ["G34C U96C", 0.14],
  ["U52C U104C", 1.1],
  ["U20C C113U", 1.62],
  ["C19U A79U", 1.47],
  ["A42G C131A", 1.23],
  ["A65G C95A", 0.04],
  ["U119C A141G", 1.87],
  ["U9C U87G", 0.69]
]}
